- experimental system: T1, cynomolgus Trop-2-His protein (cynomolgus, UniProt P09758 27-274 (human entry))
- T1 construct: also called cynmolgus Trop-His; Kactus Cat #TRP-CM121; not shown: His tag
- T1 chain: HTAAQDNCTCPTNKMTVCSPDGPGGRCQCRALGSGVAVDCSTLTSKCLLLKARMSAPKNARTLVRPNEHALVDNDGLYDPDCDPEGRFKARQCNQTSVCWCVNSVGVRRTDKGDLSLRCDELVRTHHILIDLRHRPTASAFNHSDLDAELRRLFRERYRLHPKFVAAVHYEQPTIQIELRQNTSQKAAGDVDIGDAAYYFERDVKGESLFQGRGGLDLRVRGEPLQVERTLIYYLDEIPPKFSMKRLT
- protocol summary: BLI (Gator Prime), LEM supernatant Ab on HFC probe
Readings of Kd for the listed binders

[
  {
    "binder": "10A9 (antibody, V domains shown, Rabbit-derived clone; LEM construct: VH + rabbit IgG CH1 + human IgG1 CH2-CH3) VH: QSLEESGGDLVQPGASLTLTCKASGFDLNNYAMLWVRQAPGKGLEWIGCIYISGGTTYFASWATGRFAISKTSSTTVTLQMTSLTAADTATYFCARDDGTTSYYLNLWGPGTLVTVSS VL: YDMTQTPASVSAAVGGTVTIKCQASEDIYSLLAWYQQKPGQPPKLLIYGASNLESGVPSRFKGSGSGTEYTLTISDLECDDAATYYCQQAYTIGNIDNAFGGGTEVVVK",
    "Kd (nM)": 0.108
  },
  {
    "binder": "63H3 (antibody, V domains shown, Rabbit-derived clone; LEM construct: VH + rabbit IgG CH1 + human IgG1 CH2-CH3) VH: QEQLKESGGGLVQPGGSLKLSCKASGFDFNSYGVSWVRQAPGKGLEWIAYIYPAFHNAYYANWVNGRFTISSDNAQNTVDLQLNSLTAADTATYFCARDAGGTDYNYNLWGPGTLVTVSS VL: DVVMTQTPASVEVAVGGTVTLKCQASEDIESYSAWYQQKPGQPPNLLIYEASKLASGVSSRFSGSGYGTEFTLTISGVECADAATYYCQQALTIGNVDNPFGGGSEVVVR",
    "Kd (nM)": 0.218
  },
  {
    "binder": "5D4 (antibody, V domains shown, Rabbit-derived clone; LEM construct: VH + rabbit IgG CH1 + human IgG1 CH2-CH3) VH: QQLEESGGGLVKPEGSLTLTCKGSGFDFSGTYWMWWVRQAPGKGLEWIACIYVGSGSSTYYASWAKGRFTISSTSSTAVTLQATSLTAADTATYFCARGATNNVFMNYFNLWGPGTLVTVSS VL: FEMTQTPSSVSEPVGGTVTIKCQASEDISSNLGWYQQKPGQPPKLLIYGASTLASGVPSRFKGSGSGTEFTLTISDLECADAATYYCQTSYYIDDGVNGFGGGTEVVVK",
    "Kd (nM)": 0.256
  },
  {
    "binder": "74F11/15F5 (antibody, human IgG1, V domains shown, LEM construct: VH + rabbit IgG CH1 + human IgG1 CH2-CH3) VH: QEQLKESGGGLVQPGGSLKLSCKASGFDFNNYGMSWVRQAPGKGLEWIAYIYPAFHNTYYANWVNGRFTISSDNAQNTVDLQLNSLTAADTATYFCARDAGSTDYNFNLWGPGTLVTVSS VL: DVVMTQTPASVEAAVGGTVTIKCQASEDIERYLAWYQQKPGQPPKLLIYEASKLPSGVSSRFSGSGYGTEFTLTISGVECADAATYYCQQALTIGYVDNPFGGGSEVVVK",
    "Kd (nM)": 0.264
  },
  {
    "binder": "2H5 (antibody, V domains shown, Rabbit-derived clone; LEM construct: VH + rabbit IgG CH1 + human IgG1 CH2-CH3) VH: QSLEESGGDLVQPGASLTLTCKASGFDLNNYSILWVRQAPGKGLEWIGCIYFSGGSTYYANWAKGRFAISKTSSTTVTLQMTSLTAADTATYFCARDDGTTSYYLNLWGPGTLVTVSS VL: YDMTQTPASVSEPVGGTVTIKCQASEDIYNLLAWYQQKPGQPPKLLIYAASDLESGVPSRFKGSGSGTEYTLTISDLECADAATYYCQQAYTVGNIDNAFGGGTEVVVK",
    "Kd (nM)": 0.582
  }
]
